Provenance of the data: the supplement of paper PMC10567573

B1: CFHR2 (parent)
chain: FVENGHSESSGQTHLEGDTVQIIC

- Variants of: B1
- assay_explanation: protein stability index of a GFP-peptide fusion (GPS, HEK-293T) (PSI 1-6); higher = more stable;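 note: lentivirally expressed fusions sorted by FACS into six bins by GFP to DsRed ratio, PSI derived from sequencing read proportions per bin multiplied by bin number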
- experimental_parameters: c terminus: a fixed tail appended
measure_name: protein stability index

INSERT INTO measurements (mutation_string, measure_name, value_measured) VALUES
  ('G11N', 'protein stability index', 3.09),
  ('L15H', 'protein stability index', 3),
  ('G17H', 'protein stability index', 2.99);
